B1: LINE1-full (parent)
chain: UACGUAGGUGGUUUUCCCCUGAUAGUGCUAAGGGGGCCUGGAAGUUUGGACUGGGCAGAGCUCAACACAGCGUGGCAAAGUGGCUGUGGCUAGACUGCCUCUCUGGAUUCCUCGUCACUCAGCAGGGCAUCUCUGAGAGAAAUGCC

- Variants of: B1
- ASSAY EXPLANATION: self-cleavage, relative activity (ratio to wild type); higher = more cleavage; in vitro, sequencing; the parent is a self-cleaving ribozyme
Answer each item with its documented self-cleavage.
I'd appreciate a reply containing only the number, no unit.

Data request: Provide measured self-cleavage value, entry: U1G A138G
Data returned: 1.57

Data request: Consider the variant C66U U119C and give its recorded self-cleavage.
Data returned: 0.04

Data request: For the variant U1G U52C , give its reported self-cleavage.
Data returned: 2.63

Data request: Input U39C G127U , output reported self-cleavage.
Data returned: 0.87
